Listing of entries alongside the reported pEC50.
Molecular target: CynoCD100-His (cynomolgus monkey)
Assay: ELISA
pEC50 is a log-scale quantity: -log10 of the concentration expressed in molar.

Guide cases for pEC50, answers given:
Pepinemab (antibody, V domains shown) VH: QVQLVQSGAEVKKPGSSVKVSCKASGYSFSDYYMHWVRQAPGQGLEWMGQINPTTGGASYNQKFKGKATITVDKSTSTAYMELSSLRSEDTAVYYCARYYYGRHFDVWGQGTTVTVSS VL: DIVMTQSPDSLAVSLGERATINCKASQSVDYDGDSYMNWYQQKPGQPPKLLIYAASNLESGVPDRFSGSGSGTDFTLTISSLQAEDVAVYYCQQSNEDPYTFGQGTKLEIK = 10.03
A31-VHH1 (antibody, V domains shown) VH: EVQLVESGGGLVQPEGSLRLSCAASGFPLDYYAIGWFRQAPGKEREGVSCIISGGSTKYSASVKGRFTISRDSAKNTVYLQMNSLRAEDTAVYFCAVSWSCDLFPRDTYGWDAWGQGTLVTVSS = 9.88
A9-VHH1 (antibody, V domains shown) VH: QVQLVESGGGLVQPGGSLRLSCAASGFSLDYYAIGWFRQAPGKEREEVSCISSSGGSTDYADSVKGRFTISRAYAKVYLQMNSLKPEDTAVYYCAAGVSGSVCPPLIGAYWGQGTLVTVSS = 9.77
A9-VHH3 (antibody, V domains shown) VH: QVQLVESGGGLVQAGGSLRLSCAASGFSLDYYAIGWFRQAPGKGLEEVSCISSSGGSTDYADSVKGRFTISRAYAKVYLQMNSLRAEDTAVYYCAAGVSGSVCPPLIGAYWGQGTLVTVSS = 8.88

stdin: What pEC50 value was documented for this binder, A9-VHH2 (antibody, V domains shown) VH: QVQLVESGGGLVQAGGSLRLSCAASGFSLDYYAIGWFRQAPGKEREEVSCISSSGGSTDYADSVKGRFTISRAYAKVYLQMNSLRAEDTAVYYCAAGVSGSVCPPLIGAYWGQGTLVTVSS ?
stdout: 9.13
